target_entity: UniProt P28223
Sequence (P28223 whole entry): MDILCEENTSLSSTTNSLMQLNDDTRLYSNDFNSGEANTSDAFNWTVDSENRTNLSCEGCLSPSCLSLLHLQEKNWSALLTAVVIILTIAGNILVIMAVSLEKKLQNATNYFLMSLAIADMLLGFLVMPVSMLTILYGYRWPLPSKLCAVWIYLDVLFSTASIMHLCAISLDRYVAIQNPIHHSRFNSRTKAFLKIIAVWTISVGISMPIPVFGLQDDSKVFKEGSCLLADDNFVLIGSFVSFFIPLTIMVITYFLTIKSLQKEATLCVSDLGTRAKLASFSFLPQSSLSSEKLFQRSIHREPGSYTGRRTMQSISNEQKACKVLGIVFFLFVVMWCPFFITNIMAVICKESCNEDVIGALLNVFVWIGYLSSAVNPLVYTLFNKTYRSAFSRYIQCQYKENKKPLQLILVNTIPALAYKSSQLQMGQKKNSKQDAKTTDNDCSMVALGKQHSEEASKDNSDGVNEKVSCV
test_protocol: NIMH PDSP CNS receptor radioligand binding
quantity_kind: Ki

Sample Cl.Fc1cccc(CCCNCCc2ccnc(-n3ccnc3)n2)c1 [Compound 9] — what was its Ki?
≥ 500 nM

----------
target_entity: serotonin 5-HT1A (Homo sapiens)
Sequence (P08908 1-422): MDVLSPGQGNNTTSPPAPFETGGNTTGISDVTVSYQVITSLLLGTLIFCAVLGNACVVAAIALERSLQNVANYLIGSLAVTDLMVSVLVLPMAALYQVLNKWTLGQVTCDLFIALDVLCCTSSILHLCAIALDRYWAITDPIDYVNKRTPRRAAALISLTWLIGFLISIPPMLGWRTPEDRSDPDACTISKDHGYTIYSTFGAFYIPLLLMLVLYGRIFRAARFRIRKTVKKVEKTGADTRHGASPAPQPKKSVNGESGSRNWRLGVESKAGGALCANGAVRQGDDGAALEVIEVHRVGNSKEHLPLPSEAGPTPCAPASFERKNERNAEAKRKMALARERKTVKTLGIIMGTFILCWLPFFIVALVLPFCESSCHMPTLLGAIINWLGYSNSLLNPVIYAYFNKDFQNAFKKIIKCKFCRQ
pKi: −log10 of the molar value.
quantity_kind: pKi

Need pKi of "Cl.Fc1cccc(CCCNCCc2ccnc(-n3ccnc3)n2)c1" , thanks.
≤ 6.30
